- assay: Plasma and urine pharmacokinetics of ASP3026
- Format: in vivo, human
- reported.conditions: human, plasma, oral, Median tmax across the dose groups, Day 1

- mol.smiles: "COc1cc(N2CCC(N3CCN(C)CC3)CC2)ccc1Nc1ncnc(Nc2ccccc2S(=O)(=O)C(C)C)n1"
  Tmax: "1.97 to 3.97 h"

###

- assay: Plasma and urine pharmacokinetics of ASP3026
- Type: in vivo, human
- reported.conditions: human, plasma, oral, Mean tmax across the dose groups, Day 28
experimental.endpoint: Tmax

- mol.smiles: "COc1cc(N2CCC(N3CCN(C)CC3)CC2)ccc1Nc1ncnc(Nc2ccccc2S(=O)(=O)C(C)C)n1"
  experimental.endpoint: "Tmax"
  observed.measurement: "2.48 to 3.75 h"
